Numbers sourced from PubChem BioAssay (NCI).

Catalogue of growth inhibition readings, one per entry.
- assay: NCI Yeast Anticancer Drug Screen. Data for the sgs1 mgt1 strain (AID 161);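 note: 0% = growth of cultures given vehicle only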
- conditions.used: S. cerevisiae sgs1 mgt1 strain, at 50.0 µM, stronger effect = higher value
Compounds without any hit were thinned out: in the full panel of roughly 79,000, 15% have a hit.
Supply the numeric figure in %, leaving out any unit text.

Solved entries (count: 3):
CCc1ccccc1NC(=O)C(=O)C(C(=O)c1ccc(OC)cc1)c1ccc(OC)cc1 (stereo not given)    5.4
CC(=O)/C(=C/n1ccc(=O)[nH]c1=S)C(=O)Nc1ccccc1    -18.6
COc1cc(CCl)c(OC)cc1Cl    -1.4

Query :: Consider the molecule shown here: CSC1=NC=C(C#N)C2=NC(c3ccc(Cl)cc3)NN12 (stereo not given) What is its recorded growth inhibition?
Result :: 17.2

Query :: Moving on to the next molecule: CC1(C)CCCc2c(-c3ccccc3)cc3c4ccccc4cc[n+]3c21
Result :: -14.6

----------
- assay: NCI Yeast Anticancer Drug Screen. Data for the rad50 strain (AID 155);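 note: 0% = growth of vehicle-only cultures of the same strain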
- conditions.used: S. cerevisiae rad50 strain growth inhibition; at 50.0 µM; stronger effect = higher value
The panel holds about 79,000 compounds, 15% with a hit somewhere; the sample as a whole holds those more often.
Catalogue of growth inhibition readings, one per entry.
Supply the numeric figure in %, leaving out any unit text.

Solved entries (count: 6):
Nc1cccc2cccc(N)c12    51.9
O=[N+]([O-])c1ccc(N=NC(=S)NNc2ccccc2)cc1    38.9
O=C=Nc1ccc(Cc2ccc(N=C=O)cc2)cc1 (tested in a mixture with another compound)    -6.55
COC1CC(NC(C)=O)C(OC(=O)c2ccccc2)C(CBr)O1 (configuration not stated)    17.6
CC(CO)CCNc1ncnc2c1ncn2CCC(=O)O (configuration not stated)    -8.7
CN(NC(=O)/C(=C\c1ccccc1Cl)NC(=O)c1ccccc1)c1cn[nH]c(=O)c1Cl    -13.2

Query :: Consider the compound shown here: O=C1CCC2(C=Nc3ccccc32)C2Cc3ccccc3N12 (configuration not stated) What is its recorded growth inhibition?
Result :: -27.3

Query :: Moving on to the next compound: O=C1NC(=O)C(F)[CH]([Ge](=[O])[O][Ge](=[O])[CH]2NC(=O)NC(=O)C2F)N1 (configuration not stated)
Result :: -7.45

----------
- assay: NCI Yeast Anticancer Drug Screen. Data for the rad50 strain (AID 155);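 note: 0% = growth of vehicle-only cultures of the same strain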
- conditions.used: S. cerevisiae rad50 strain growth inhibition; at 50.0 µM; stronger effect = higher value
Compounds without any hit were thinned out: in the full panel of roughly 79,000, 15% have a hit.
measurement.label: growth inhibition (%)
Supply the numeric figure in %, leaving out any unit text.

CC[N+]1(C)CCC(O)(c2ccccc2)C(C(=O)c2ccccc2)C1 (configuration not stated)    3.5
CCCC(=O)Nc1cc(C(=O)N2C[C@H]3C[C@@]34C2=CC(=O)c2[nH]cc(C)c24)n(COC)c1    43.9
C=CCC1=C(C)C(O)CC1=O (configuration not stated)    -21.9

Query :: Consider the molecule shown here: COc1nnc(-c2ccccc2)c(-c2ccccc2)n1 What is its recorded growth inhibition?
Result :: 13.2

Query :: Moving on to the next molecule: NC(=O)c1nnn(Cc2ccccc2)c1C(N)=O
Result :: -13.9

Query :: Moving on to the next molecule: COc1cc(O)c(Cc2ccccc2O)c(O)c1C(=O)CCc1ccccc1
Result :: -17.4

Query :: Moving on to the next molecule: Oc1ccc2nccnc2c1
Result :: 10.1

Query :: Moving on to the next molecule: O=S1(=O)COc2ccccc2-c2ncncc21
Result :: 10.2

Query :: Moving on to the next molecule: O=C(O)c1ccncc1C(=O)c1csc2ccccc12
Result :: 7.9

Query :: Moving on to the next molecule: COc1ccccc1/C=N/NS(=O)(=O)c1ccc(NC(C)=O)cc1
Result :: 0.85

Query :: Moving on to the next molecule: O=C(CN1CCCC1)Nc1ccc2sc3ccccc3c(=O)c2n1
Result :: 17.2

Query :: Moving on to the next molecule: O/N=C1/CC2(N3CCOCC3)C3CC/C(=N\O)C2CC1(Cc1ccccc1)C3 (configuration not stated)
Result :: 2.75

----------
- assay: NCI Yeast Anticancer Drug Screen. Data for the bub3 strain (AID 167)
- conditions.used: S. cerevisiae bub3 mutant strain, at 50.0 µM, stronger effect = higher value
About 79,000 compounds went through this panel and 15% of them were active in at least one assay; those are over-represented in the sample as a whole.
measurement.label: growth inhibition (%)
Supply the numeric figure in %, leaving out any unit text.

Solved entries (count: 4):
FC(F)(F)C(c1ccc(Cl)cc1)c1ccc(Cl)cc1    5.95
CSc1nc(NC2OC(COC(C)=O)C(OC(C)=O)C(OC(C)=O)C2OC(C)=O)c(-c2csc(N)n2)c(=O)n1C (centres undefined)    -8.15
COc1ccc(C(CC(=O)O)CC(=O)O)cc1[N+](=O)[O-]    15.9
CC1=C(C(=O)Nc2ccc([N+](=O)[O-])cc2)C(c2cccc([N+](=O)[O-])c2)C(C(=O)Nc2ccc([N+](=O)[O-])cc2)=C(C)N1    -15.3

Query :: Consider the compound shown here: NC(CO)C(=O)NCC(=O)O (centres undefined) What is its recorded growth inhibition?
Result :: -18.2

Query :: Moving on to the next compound: O=P(O)(O)CN1CCN(CP(=O)(O)O)CCN(CP(=O)(O)O)CCN(CP(=O)(O)O)CC1
Result :: -0.05

Query :: Moving on to the next compound: NC(CCC1CCCCC1)C(=O)O (centres undefined)
Result :: 22.6

Query :: Moving on to the next compound: C[C@@]12C[C@@H](c3ccccc3O1)N1CCCSC1=N2
Result :: -9.8

Query :: Moving on to the next compound: C/C=C/c1ccc(OC(C)C(=O)c2ccc3c(c2)OCO3)c(OC)c1 (centres undefined)
Result :: 6.7

Query :: Moving on to the next compound: COc1ccccc1C(=O)c1ccccc1
Result :: -20.1

Query :: Moving on to the next compound: COc1ccc2c(c1)Cc1cc(N=[N+]([O-])c3ccc4c(c3)Cc3cc(OC)ccc3-4)ccc1-2
Result :: 47.5

Query :: Moving on to the next compound: CCOC(=O)C(CCC(C)(C)SCc1ccccc1)(NC(C)=O)C(=O)OCC
Result :: 2.15

----------
Catalogue of growth inhibition readings, one per entry.
- assay: NCI Yeast Anticancer Drug Screen. Data for the cln2 rad14 strain (AID 165);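 note: 0% = growth equal to vehicle treated cultures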
- conditions.used: S. cerevisiae cln2 rad14 strain, at 50.0 µM, stronger effect = higher value
- Experimental: Growth inhibition of yeast strains with defined genetic alterations is measured as a screen for potential anti-cancer activity. Selected strains with alterations in DNA damage repair or cell cycle control were exposed to compounds and growth inhibition was measured relative to vehicle treated controls. The strain used in this assay is cln2 rad14
About 79,000 compounds went through this panel and 15% of them were active in at least one assay; those are over-represented in the sample as a whole.
Supply the numeric figure in %, leaving out any unit text.

Solved entries (count: 5):
N#Cc1ccccc1NC(=O)Nc1ccc(Cl)cc1Cl    -0.25
CCN(CC)CCNc1nnc(NCCN(CC)CC)c2cc3ccccc3cc12    -4.45
OCC(O)C(O)C(O)C(SCc1ccccc1)SCc1ccccc1 (stereo not drawn)    -4.8
CCOC(=O)C(C)(C)c1cn(C)c2ccccc12    -4.8
C[N+]1(C)CCCC(CO)(c2ccccc2)CC1 (stereo not drawn)    -15.5

Okay, now this compound:
Query :: Consider the compound shown here: Cc1c(Cl)c(=O)oc2cc(OCC(O)COC(C)C)ccc12 (stereo not drawn) What is its recorded growth inhibition?
Result :: -23.2

----------
Catalogue of growth inhibition readings, one per entry.
- assay: NCI Yeast Anticancer Drug Screen. Data for the rad50 strain (AID 155);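 note: 0% = growth of vehicle-only cultures of the same strain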
- conditions.used: S. cerevisiae rad50 strain growth inhibition; at 50.0 µM; stronger effect = higher value
This is part of a sample that, as a whole, favours compounds with a hit. Of some 79,000 tested, about 15% had one in any assay.
Supply the numeric figure in %, leaving out any unit text.

Solved entries (count: 3):
O=C(N/N=C/c1ccccc1Cl)c1ccccc1    -19.4
Nc1ccc(O)c(N=Nc2ccc(S(N)(=O)=O)cc2)c1    6
O=C(NSNc1ccccc1)c1ccccc1    0.8

Query :: Consider the compound shown here: O=C(O)c1cc(Cl)ccc1-c1ccc(Cl)cc1C(=O)Nc1ccc2c(c1)Cc1cc(Cl)cc(Cl)c1-2 What is its recorded growth inhibition?
Result :: 96.2

----------
- assay: NCI Yeast Anticancer Drug Screen. Data for the mlh1 rad18 strain (AID 175)
- conditions.used: S. cerevisiae mlh1 rad18 strain growth inhibition; at 50.0 µM; stronger effect = higher value
About 79,000 compounds went through this panel and 15% of them were active in at least one assay; those are over-represented in the sample as a whole.
Catalogue of growth inhibition readings, one per entry.
Supply the numeric figure in %, leaving out any unit text.

Solved entries (count: 2):
O=[N+]([O-])c1cccc(N=C2c3ccccc3CN2c2cccc([N+](=O)[O-])c2)c1    -0.4
CC(C)Oc1ccc(C(=O)OCCC(C)N2CCCC2)cc1 (stereo not given)    27.9

Query :: Consider the molecule shown here: NNC(=O)c1ccc(Cl)c(Cl)c1 What is its recorded growth inhibition?
Result :: -23.8

Query :: Moving on to the next molecule: CC(C)(C)COc1ccc2c(c1)C1=NC2=NC2=NC(=NC3=NC(=NC4=NC(=N1)c1ccc(OCC(C)(C)C)cc14)c1ccc(OCC(C)(C)C)cc13)c1ccc(OCC(C)(C)C)cc12
Result :: 18.4

Query :: Moving on to the next molecule: O=c1c2ccccc2[nH]c2ccc(O)cc12
Result :: 16.4

Query :: Moving on to the next molecule: O=C(C[n+]1cccc(Br)c1)c1ccc(F)cc1
Result :: 10.2

Query :: Moving on to the next molecule: Nc1nnnn1NC(=O)c1ccccc1
Result :: -11.3

Query :: Moving on to the next molecule: CC(=O)NCC(C)(C)C
Result :: -12.8

Query :: Moving on to the next molecule: NNc1nc2ccccc2[nH]1
Result :: 8.85

Query :: Moving on to the next molecule: O=C(Nc1ccc(F)cc1)C(Br)C(Br)c1ccccc1 (stereo not given)
Result :: 95.5

Query :: Moving on to the next molecule: N#Cc1cn(C2OC(CO)C3OC32)c2ncnc(NC(=O)c3ccccc3)c12 (stereo not given)
Result :: 15.5

Query :: Moving on to the next molecule: CC(/C=C/C(=O)c1ccccc1)=C\C=N\N(C)c1ccccc1
Result :: 1.5
